target: huPD-L1 (Homo sapiens, UniProt Q9NZQ7); assay: Flow binding to CHO cells stably expressing PD-L1; set-up: huCTLA4 and huPD-L1, full-length mammalian surface expression constructs were generated; expressed in transfected cells; host or cells: CHO cells, lentiviral transduction, sorted to >98% purity; details: Table E19; MFI at 33.3 nM relative to WT CD80 ECD-Fc (Abcam)
Sequence (Q9NZQ7 19-290): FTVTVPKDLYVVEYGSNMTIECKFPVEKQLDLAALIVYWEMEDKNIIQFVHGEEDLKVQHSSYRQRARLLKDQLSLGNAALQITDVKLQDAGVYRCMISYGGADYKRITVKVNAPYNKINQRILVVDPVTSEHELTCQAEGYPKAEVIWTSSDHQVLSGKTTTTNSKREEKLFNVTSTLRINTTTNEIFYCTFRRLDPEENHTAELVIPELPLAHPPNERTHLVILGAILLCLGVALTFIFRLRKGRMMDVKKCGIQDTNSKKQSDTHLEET
Use 50 fold as the dividing line for PD-L1 Fold change to WT CD80, with the line itself on the yes (1) side and lower values as no (0).

Past entries and their recorded results:
E35D/K89N (protein) VIHVTKEVKEVATLSCGHNVSVEELAQTRIYWQKDKKMVLTMMSGDMNIWPEYKNRTIFDITNNLSIVILALRPSDEGTYECVVLKYENDAFKREHLAEVTLSVKAD | no (0)
E35D/M47V (protein) VIHVTKEVKEVATLSCGHNVSVEELAQTRIYWQKDKKMVLTMMSGDVNIWPEYKNRTIFDITNNLSIVILALRPSDEGTYECVVLKYEKDAFKREHLAEVTLSVKAD | yes (1)

q: I'd appreciate it if you could say whether D46V/V68M (protein) VIHVTKEVKEVATLSCGHNVSVEELAQTRIYWQKEKKMVLTMMSGVMNIWPEYKNRTIFDITNNLSIMILALRPSDEGTYECVVLKYEKDAFKREHLAEVTLSVKAD has PD-L1 Fold change to WT CD80 at least equal to 50 fold.
a: no (0)

q: Can you handle M47V/N48K/V68M (protein) VIHVTKEVKEVATLSCGHNVSVEELAQTRIYWQKEKKMVLTMMSGDVKIWPEYKNRTIFDITNNLSIMILALRPSDEGTYECVVLKYEKDAFKREHLAEVTLSVKAD next?
a: yes (1)

q: How about this molecule: E35D/M47V/N48K/K89N (protein) VIHVTKEVKEVATLSCGHNVSVEELAQTRIYWQKDKKMVLTMMSGDVKIWPEYKNRTIFDITNNLSIVILALRPSDEGTYECVVLKYENDAFKREHLAEVTLSVKAD
a: yes (1)

q: Next molecule up: M47V/V68M (protein) VIHVTKEVKEVATLSCGHNVSVEELAQTRIYWQKEKKMVLTMMSGDVNIWPEYKNRTIFDITNNLSIMILALRPSDEGTYECVVLKYEKDAFKREHLAEVTLSVKAD
a: no (0)

q: Now give it for E35D/M47V/V68M/L85Q/K89N (protein) VIHVTKEVKEVATLSCGHNVSVEELAQTRIYWQKDKKMVLTMMSGDVNIWPEYKNRTIFDITNNLSIMILALRPSDEGTYECVVQKYENDAFKREHLAEVTLSVKAD too.
a: yes (1)
